Cited source: patent US9242944B2

Molecular target: c-Myc-Max heterodimers (Homo sapiens, UniProt P01106)
Construct: c-Myc bHLH-ZIP domain (residues 353-437); His6-TEV protease substrate tag; made in house; host or cells: bacteria (pET151 vector for Myc)
Sequence (P01106 368-452, one chain of several): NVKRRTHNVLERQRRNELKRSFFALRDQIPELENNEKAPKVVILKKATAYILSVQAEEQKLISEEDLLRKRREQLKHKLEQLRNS
Test: Electrophoretic mobility shift assay (EMSA) of c-Myc-Max dimerization and DNA binding
Settings: 50% inhibition of c-Myc-Max dimerization and DNA binding in EMSAs
# strict inequality: IC50 < 70 µM yields TRUE, everything else yields FALSE

>  <compound>
COC(=O)c1ccc(Nc2ccc([N+](=O)[O-])c3nonc23)c(-c2ccc(C)cc2)c1

>  <system.under.test>
c-Myc-Max heterodimers (Homo sapiens, UniProt P01106)

>  <group>
TRUE

$$$$
>  <compound>
COC(=O)c1ccc(Nc2ccc([N+](=O)[O-])c3nonc23)c(-c2ccc(C(F)(F)F)cc2)c1

>  <system.under.test>
c-Myc-Max heterodimers (Homo sapiens, UniProt P01106)

>  <group>
FALSE

$$$$
>  <compound>
O=C(Nc1ccccc1)c1ccc(Nc2ccc([N+](=O)[O-])c3nonc23)cc1

>  <system.under.test>
c-Myc-Max heterodimers (Homo sapiens, UniProt P01106)

>  <group>
TRUE

$$$$
>  <compound>
O=C(O)c1cc([N+](=O)[O-])ccc1Nc1ccccc1-c1ccccc1 [SF-3-103B]

>  <system.under.test>
c-Myc-Max heterodimers (Homo sapiens, UniProt P01106)

>  <group>
FALSE

$$$$
>  <compound>
O=C(O)c1ccc(Nc2ccc([N+](=O)[O-])c3nonc23)cc1

>  <system.under.test>
c-Myc-Max heterodimers (Homo sapiens, UniProt P01106)

>  <group>
TRUE

$$$$
>  <compound>
Cc1ccc(-c2cc(C(=O)O)ccc2Nc2ccc([N+](=O)[O-])c3nonc23)cc1

>  <system.under.test>
c-Myc-Max heterodimers (Homo sapiens, UniProt P01106)

>  <group>
FALSE

$$$$

###

Listing: inhibition at 100 µM of selected compounds
Target: c-Myc-Max heterodimers (Homo sapiens, UniProt P01106)
Construct: c-Myc bHLH-ZIP domain (residues 353-437); His6-TEV protease substrate tag; made in house; host or cells: bacteria (pET151 vector for Myc)
Assay: Electrophoretic mobility shift assay (EMSA) of c-Myc-Max dimerization and DNA binding
Settings: Table 10; 100 μM small-molecule, EMSA; read-out: % Inhibition of c-Myc-Max Dimerization

>  <compound>
N#Cc1cccc(-c2cc(Nc3ccc([N+](=O)[O-])c4nonc34)ccc2C(=O)O)c1 [Compound 3jc62-5]

>  <inhibition at 100 µM (%)>
8

$$$$
>  <compound>
Cc1ccc(-c2cc(C(=O)O)ccc2Nc2ccc([N+](=O)[O-])c3nonc23)cc1 [Compound 3jc53-6]

>  <inhibition at 100 µM (%)>
16

$$$$
>  <compound>
Cc1cccc(-c2cc(Nc3ccc([N+](=O)[O-])c4nonc34)ccc2C(=O)O)c1 [Compound 3jc62-2]

>  <inhibition at 100 µM (%)>
0

$$$$
>  <compound>
O=C(O)c1ccc(Nc2ccc([N+](=O)[O-])c3nonc23)cc1-c1ccccc1 [Compound 3jc62-7]

>  <inhibition at 100 µM (%)>
0

$$$$
>  <compound>
Cc1ccccc1-c1cc(C(=O)O)ccc1Nc1ccc([N+](=O)[O-])c2nonc12 [Compound 3jc53-4]

>  <inhibition at 100 µM (%)>
7

$$$$
>  <compound>
O=C(O)c1ccc(Nc2ccc([N+](=O)[O-])c3nonc23)c(-c2ccccc2-c2ccccc2)c1 [Compound 3jc53-1]

>  <inhibition at 100 µM (%)>
18

$$$$
>  <compound>
COC(=O)c1ccc(Nc2ccc([N+](=O)[O-])c3nonc23)c(-c2ccc(C(F)(F)F)cc2)c1 [Compound 4jc23-4]

>  <inhibition at 100 µM (%)>
74

$$$$
>  <compound>
Cc1cccc(-c2cc(C(=O)O)ccc2Nc2ccc([N+](=O)[O-])c3nonc23)c1 [Compound 3j53-5]

>  <inhibition at 100 µM (%)>
16

$$$$
>  <compound>
COC(=O)c1ccc(Nc2ccc([N+](=O)[O-])c3nonc23)c(-c2ccc(C)cc2)c1 [Compound 3jc48-3]

>  <inhibition at 100 µM (%)>
94

$$$$
>  <compound>
O=C(O)c1ccc(Nc2ccc([N+](=O)[O-])c3nonc23)c(-c2ccccc2)c1 [Compound 3jc42]

>  <inhibition at 100 µM (%)>
10

$$$$
>  <compound>
N#Cc1ccccc1-c1cc(Nc2ccc([N+](=O)[O-])c3nonc23)ccc1C(=O)O [Compound 3jc62-4]

>  <inhibition at 100 µM (%)>
0

$$$$
>  <compound>
COc1ccc(-c2cc(C(=O)O)ccc2Nc2ccc([N+](=O)[O-])c3nonc23)cc1 [Compound 3jc53-14]

>  <inhibition at 100 µM (%)>
4

$$$$
>  <compound>
N#Cc1cccc(-c2cc(C(=O)O)ccc2Nc2ccc([N+](=O)[O-])c3nonc23)c1 [Compound 3jc53-8]

>  <inhibition at 100 µM (%)>
23

$$$$
>  <compound>
N#Cc1ccc(-c2cc(C(=O)O)ccc2Nc2ccc([N+](=O)[O-])c3nonc23)cc1 [Compound 3jc53-9]

>  <inhibition at 100 µM (%)>
13

$$$$
>  <compound>
O=C(O)c1ccc(Nc2ccc([N+](=O)[O-])c3nonc23)c(-c2cccc(-c3ccccc3)c2)c1 [Compound 3jc53-2]

>  <inhibition at 100 µM (%)>
0

$$$$
